- System: CNS cell
- Assay summary: Cytotoxicity against human CNS cells after 48 hrs by SRB assay
- Type: functional
Observable: GI50

[[record]]
input_smiles = "O=c1oc(-c2ccccc2)cc2c1sc1ccccc12"
target = "CNS cell"
result = "> 112 µM"

[[record]]
input_smiles = "COC(=O)c1sc2cc(OC)ccc2c1C#Cc1ccc(F)cc1"
target = "CNS cell"
result = "20.9 µM"

[[record]]
input_smiles = "O=c1oc(-c2ccc(F)cc2)c(I)c2c1sc1ccccc12"
target = "CNS cell"
result = "20.7 µM"


**Query** What does the record list as GI50 for `COc1ccc(-c2oc(=O)c3sc4ccccc4c3c2I)cc1` ?
**Result** > 150 µM

**Query** What does the record list as GI50 for `COc1ccc2c(c1)sc1c(=O)oc(-c3ccc(F)cc3)c(I)c12` ?
**Result** > 150 µM

**Query** What does the record list as GI50 for `COC(=O)c1sc2ccccc2c1C#Cc1ccc(OC)cc1` ?
**Result** > 150 µM

**Query** What does the record list as GI50 for `COc1ccc(-c2cc3c(sc4ccccc43)c(=O)o2)cc1` ?
**Result** > 75 µM
